Cited source for all entries: patent US11760755B2

Test system: HepG2
PROTOCOL_TEXT: Compound toxicity, ATPLite total ATP levels
Type: cell-based
RECORDED_CONDITIONS: human, 3 days

>  <COMPOUND>
O=S(=O)(N[C@H]1CC2=C(c3ccn(C(F)F)n3)[C@H](c3ccc(F)cc3Cl)N=C(c3nccs3)N2C1)N1C2CCC1CC(O)C2 (single isomer, unassigned) [Example 3]

>  <CC50>
> 25 µM

$$$$
>  <COMPOUND>
O=S(=O)(N[C@H]1CC2=C(c3ccn(C(F)F)n3)[C@H](c3ccc(F)cc3Cl)N=C(c3nccs3)N2C1)N1C2CCC1CC(O)C2 (single isomer, unassigned) [Example 1]

>  <CC50>
10 to 25 µM

$$$$
